This collection of values is drawn from ChEMBL document CHEMBL5500393.

assayDetails: Cytotoxicity against HEK293 cells assessed as survival rate at 800 uM measured after 48 hrs by CCK-8 method relative to control
Format: toxicity, cell-based
details: human, read-out: Survival
quantityKind: viability at 48 h, 800 µM

>>> observedmeasurement("COc1c(Br)cccc1N1CC(c2nc3ccccc3n2C)CC1=O (stereo unspecified)")
"> 65%"
>>> observedmeasurement("Cn1c(C2CC(=O)N(c3cccc(Br)c3Cl)C2)nc2ccccc21 (stereo unspecified)")
"> 75%"
>>> observedmeasurement("Cc1c(Br)cccc1N1CC(c2nc3ccccc3n2C)CC1=O (stereo unspecified)")
"> 75%"
>>> observedmeasurement("Cc1c(Cl)cccc1N1CC(c2nc3ccccc3n2C)CC1=O (stereo unspecified)")
"> 65%"
>>> observedmeasurement("CCn1c(C2CC(=O)N(c3cccc(Br)c3C)C2)nc2ccccc21 (stereo unspecified)")
"> 65%"
>>> observedmeasurement("Cn1c(C2CC(=O)N(c3cccc(Cl)c3Cl)C2)nc2ccccc21 (stereo unspecified)")
"> 75%"

* * *

experimentalSystem: Enoyl-[acyl-carrier-protein] reductase [NADPH] FabI (Staphylococcus aureus)
assayDetails: Inhibition of N-terminal his 6 tagged Staphylococcus aureus Fabi (1 to […] residues) expressed in Escherichia coli BL21 at 1 uM incubated for 30 mins in presence of NADPH by fluorescence based microplate reader analysis relative to control
Record Condition met whenever inhibition is at 10% or higher; record Condition not met when lower.

>>> labelclass("COc1cccc(N2CC(c3nc4ccccc4n3C)CC2=O)c1C (stereo unspecified)")
"Condition met"
>>> labelclass("Cn1c(C2CC(=O)N(c3cccc(Cl)c3Cl)C2)nc2ccccc21 (stereo unspecified)")
"Condition met"
>>> labelclass("Cn1c(C2CC(=O)N(c3ccc(O)c(O)c3)C2)nc2ccccc21 (stereo unspecified)")
"Condition met"
>>> labelclass("Cc1cccc(N2CCC(c3nc4ccccc4n3C)C2)c1C (stereo unspecified)")
"Condition not met"
>>> labelclass("Cn1c(CCC(=O)NCc2ccccc2)nc2ccccc21")
"Condition not met"
>>> labelclass("O=C1CC(c2nc3ccccc3[nH]2)CN1c1cccc2ccccc12 (stereo unspecified)")
"Condition not met"
>>> labelclass("Cn1c(C2CC(=O)N(c3ccc4ccccc4c3)C2)nc2ccccc21 (stereo unspecified)")
"Condition not met"
>>> labelclass("Cn1c(C2CC(=O)N(c3ccccc3-c3ccccc3)C2)nc2ccccc21 (stereo unspecified)")
"Condition not met"
>>> labelclass("Cn1c(C2CC(=O)N(c3ccc(Cl)cc3)C2)nc2ccccc21 (stereo unspecified)")
"Condition not met"
>>> labelclass("Cn1c(C2CC(=O)N(Cc3ccccc3)C2)nc2ccccc21 (stereo unspecified)")
"Condition not met"
>>> labelclass("Cn1c(C2CC(=O)N(c3cccc(Br)c3O)C2)nc2ccccc21 (stereo unspecified)")
"Condition met"

* * *

assayDetails: Drug concentration in BALB/c mouse plasma at 400 mg/kg, po measured after 1 hr by LC-MS analysis
Type: ADME, organism-based
quantityKind: concentration at 1 h (ng/mL)

>>> observedmeasurement("Cc1c(Br)cccc1N1CC(c2nc3ccccc3n2C)CC1=O (configuration not stated)")
24000
>>> observedmeasurement("COc1c(Br)cccc1N1CC(c2nc3ccccc3n2C)CC1=O (configuration not stated)")
18100

* * *

experimentalSystem: Enoyl-[acyl-carrier-protein] reductase [NADPH] FabI (Staphylococcus aureus) (UniProt Q6GI75)
Sequence (Q6GI75 whole entry): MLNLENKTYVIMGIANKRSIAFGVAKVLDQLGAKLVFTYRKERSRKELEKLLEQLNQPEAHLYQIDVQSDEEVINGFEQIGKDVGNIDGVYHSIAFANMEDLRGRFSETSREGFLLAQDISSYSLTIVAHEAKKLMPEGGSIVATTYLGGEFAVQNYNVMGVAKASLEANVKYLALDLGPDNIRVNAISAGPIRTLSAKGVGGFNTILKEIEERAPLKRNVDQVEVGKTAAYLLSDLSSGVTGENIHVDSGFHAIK
assayDetails: Inhibition of N-terminal his 6 tagged Staphylococcus aureus Fabi (1 to […] residues) expressed in Escherichia coli BL21 at 10 uM incubated for 30 mins in presence of NADPH by fluorescence based microplate reader analysis relative to control
Binary classification by inhibition, with 90% as an inclusive lower bound for rule met; all other cases are rule not met.

>>> labelclass("Cc1c(N2CC(c3nc4ccccc4n3C)CC2=O)cccc1C(F)(F)F (stereo unspecified)")
"rule met"
>>> labelclass("Cn1c(CCC(=O)NCCC(=O)NCc2ccccc2)nc2ccccc21")
"rule not met"
>>> labelclass("Cc1cccc(NC(=O)CCc2nc3ccccc3n2C)c1C")
"rule not met"
>>> labelclass("O=C1CC(c2nc3ccccc3[nH]2)CN1c1cccc2ccccc12 (stereo unspecified)")
"rule not met"
>>> labelclass("CCn1c(C2CC(=O)N(c3cccc(Br)c3C)C2)nc2ccccc21 (stereo unspecified)")
"rule met"
>>> labelclass("Cn1c(C2CC(=O)N(c3cccc4ccccc34)C2)nc2ccccc21 (stereo unspecified)")
"rule met"
>>> labelclass("Cc1cccc(N2CCC(c3nc4ccccc4n3C)C2)c1C (stereo unspecified)")
"rule not met"
>>> labelclass("Cc1c(N2CC(c3nc4ccccc4n3C)CC2=O)cccc1[N+](=O)[O-] (stereo unspecified)")
"rule met"
>>> labelclass("Cn1c(C2CC(=O)N(Cc3ccccc3)C2)nc2ccccc21 (stereo unspecified)")
"rule not met"
